test system: DLD-1; test: In vitro cytotoxicity against DLD-1 human tumor cell lines.; format: functional, cell-based
Exercise: state measured pIC50 for each of the compounds provided.
Give bare numbers, as −log10 of the molar value.

These solved cases illustrate the format of a correct answer.
compound	pIC50
COCCOCOCC1(O)C(=O)OCc2c1cc1n(c2=O)Cc2cc3ccccc3nc2-1 (stereo unspecified)	4.59
CC(=O)OCC1(O)C(=O)OCc2c1cc1n(c2=O)Cc2cc3ccccc3nc2-1 (stereo unspecified)	5.91
COCCOCOCCC1(O)C(=O)OCc2c1cc1n(c2=O)Cc2cc3ccccc3nc2-1 (stereo unspecified)	4.82
CCOCOCCC1(O)C(=O)OCc2c1cc1n(c2=O)Cc2cc3ccccc3nc2-1 (stereo unspecified)	5.97
COCC(=O)OCCC1(O)C(=O)OCc2c1cc1n(c2=O)Cc2cc3ccccc3nc2-1 (stereo unspecified)	4.50

Now look at this entry.
Observed pIC50, DLD-1, O=C1OCc2c(cc3n(c2=O)Cc2cc4ccccc4nc2-3)C1(O)CCO (stereo unspecified) : 5.60

====

Exercise: state measured IC50 for each of the molecules provided.
system: L1210; test: In vitro cytotoxicity against L1210 mouse leukemia tumor cell line.; assay type: functional, cell-based
Numbers only, in µM.

molecule	number
COCC(=O)OCC1(O)C(=O)OCc2c1cc1n(c2=O)Cc2cc3ccccc3nc2-1 (stereo not given)	13.6

Below are 4 molecules. Give each one its IC50.
1. CC(=O)OCCC1(O)C(=O)OCc2c1cc1n(c2=O)Cc2cc3ccccc3nc2-1 (stereo not given)
2. COCCOCOCCC1(O)C(=O)OCc2c1cc1n(c2=O)Cc2cc3ccccc3nc2-1 (stereo not given)
3. CCOCOCCC1(O)C(=O)OCc2c1cc1n(c2=O)Cc2cc3ccccc3nc2-1 (stereo not given)
4. CC(=O)OCC1(O)C(=O)OCc2c1cc1n(c2=O)Cc2cc3ccccc3nc2-1 (stereo not given)

OUT:
5.09
4.97
1.42
1.71

====

Exercise: state measured IC50 for each of the compounds provided.
test system: KATO III stomach cancer cell line; assay: In vitro cytotoxicity against KATO-III human tumor cell line.; type: functional, cell-based
One number for each entry, in µM.

These solved cases illustrate the format of a correct answer.
compound	subjectOfTest	measuredProperty	unitAbbreviation	number
CCOCOCCC1(O)C(=O)OCc2c1cc1n(c2=O)Cc2cc3ccccc3nc2-1 (stereo not given)	KATO III stomach cancer cell line	IC50	µM	19.3
CC(=O)OCCC1(O)C(=O)OCc2c1cc1n(c2=O)Cc2cc3ccccc3nc2-1 (stereo not given)	KATO III stomach cancer cell line	IC50	µM	0.98
CC(C)NC(=O)OCC1(O)C(=O)OCc2c1cc1n(c2=O)Cc2cc3ccccc3nc2-1 (stereo not given)	KATO III stomach cancer cell line	IC50	µM	72.3

Now look at this entry.
The recorded IC50 for CC(=O)OCC1(O)C(=O)OCc2c1cc1n(c2=O)Cc2cc3ccccc3nc2-1 (stereo not given) is 9.43
